This collection of values is drawn from ChEMBL document CHEMBL4024760.

- Tested on: Escherichia coli
- assay_overview: Inhibition of N-terminal His-tagged Escherichia coli beta-glucuronidase expressed in Escherichia coli BL21 (DE3) assessed as residual activity using pNPG as substrate at 10 uM preincubated for 30 mins followed by substrate addition measured after 1 hr relative to control
endpoint: Activity (%)
Give the number; % is assumed, so skip it.

Case Cc1cccc(Nc2nc3ccccc3c3[nH]nc(N)c23)c1 , Escherichia coli, Activity recorded as 80.7

Form field Activity for item Nc1n[nH]c2c1c(Nc1ccc(Cl)cc1)nc1ccc(Br)cc12 on Escherichia coli: 16.4

Noted Activity for Nc1n[nH]c2c1c(Nc1ccc(Cl)cc1)nc1ccc(Cl)cc12 , tested on Escherichia coli: 6.35

GET /values?item= c1ccc2c(c1)c1nonc1c1ccoc21 &system= Escherichia coli returns Activity: 111

Measured on Escherichia coli, Nc1n[nH]c2c1c(N)nc1ccccc12 has a documented Activity of 86.3

Entry CCN(CC)CCNC(=O)c1ccc(/N=C2/c3ccccc3C(=O)c3c2ccn3Cc2ccccc2)cc1 : Activity on Escherichia coli = 87.4

Bench note, Escherichia coli: COc1cc(/C=C2\CNC/C(=C\c3cc(OC)c(OC)c(OC)c3)C2=O)cc(OC)c1OC , Activity reads 111

Test item COc1cc(/C=C2\CN(C(=O)CN(C)C)C/C(=C\c3cc(OC)c(OC)c(OC)c3)C2=O)cc(OC)c1OC ; Escherichia coli; reported Activity was 34.1

# lookup: Nc1n[nH]c2c1c(Nc1ccc(C(F)(F)F)cc1)nc1ccccc12 on Escherichia coli, Activity = 5.66

Form field, Activity with Escherichia coli, item O=C1c2ccccc2-c2c(N3CCC(O)CC3)nc3ccccc3c21 : 74.9

Form field Activity for item CCOc1ccc(NC(=S)N(CCO)Cc2cc3cc(C)cc(C)c3[nH]c2=O)cc1 on Escherichia coli: 8.83

Case Nc1n[nH]c2c1c(Nc1ccccc1)nc1ccccc12 , Escherichia coli, Activity recorded as 2.33

----------
- experimental_system: UniProt:P08236
- assay_overview: Inhibition of N-terminal His-tagged human beta-glucuronidase expressed in Escherichia coli BL21 (DE3) assessed as residual activity using pNPG as substrate at 10 uM preincubated for 30 mins followed by substrate addition measured after 1 hr relative to control
- condition_summary: probe pNPG, read-out: Activity
Please map values of activity at 1 h, 10 µM to classes as shown: Low = under 80%, Medium = from 80% up to 90%, High = 90% and over

Problem: Which of the defined bands does the recorded activity at 1 h, 10 µM of Cc1ccc(Nc2nc3ccccc3c3[nH]nc(N)c23)cc1 sit within?
Result: High

Problem: Could you place Cc1cccc(Nc2nc3ccccc3c3[nH]nc(N)c23)c1 in its proper category? Many thanks.
Result: Medium

Problem: GET /class?item= Nc1ccc(Nc2nc3ccccc3c3[nH]nc(N)c23)cc1
Result: Low

Problem: Band for the recorded activity at 1 h, 10 µM of CC(=O)c1ccc(Nc2nc3ccccc3c3[nH]nc(N)c23)cc1 ?
Result: Medium

Problem: Class (by measured activity at 1 h, 10 µM) for Cc1ccc(Nc2nc3c(C)cccc3c3[nH]nc(N)c23)cc1
Result: Medium

Problem: Looking at CCN(CC)CCNC(=O)c1ccc(/N=C2/c3ccccc3C(=O)c3c2ccn3Cc2ccccc2)cc1 , which class would you pick?
Result: Medium

Problem: Please classify: Cc1ccc(Nc2nc3ccc(Br)cc3c3[nH]nc(N)c23)cc1
Result: High

Problem: Which class does O=C(O)[C@@H](O)[C@H]1OC(=O)[C@H](O)[C@H]1O [D-SACCHARIC ACID 1,4-LACTONE] fall in?
Result: Low

Problem: Band for the recorded activity at 1 h, 10 µM of Nc1n[nH]c2c1c(Nc1ccc(Cl)cc1)nc1ccccc12 ?
Result: High

Problem: Sort into band: Nc1n[nH]c2c1c(Nc1ccccc1)nc1ccccc12
Result: High

Problem: Band of Nc1n[nH]c2c1c(Nc1ccc(Cl)cc1)nc1cc(F)ccc12 ?
Result: High

Problem: Please let me know in which category the item COc1ccc(-c2cc3cc(F)ccc3nc2/C=C2\SC(=O)NC2=O)cc1 belongs.
Result: Medium

----------
Task for the reader: assign each of the following molecules its reported activity at 1 h, 10 µM.
- experimental_system: UniProt:P08236
- assay_overview: Inhibition of N-terminal His-tagged human beta-glucuronidase expressed in Escherichia coli BL21 (DE3) assessed as residual activity using pNPG as substrate at 10 uM preincubated for 30 mins followed by substrate addition measured after 1 hr relative to control
- condition_summary: probe pNPG, read-out: Activity
Write it as a number; the unit % goes unstated.

# activity at 1 h, 10 µM (molecule: COc1cc(/C=C2\CNC/C(=C\c3cc(OC)c(OC)c(OC)c3)C2=O)cc(OC)c1OC ) is 107

The molecule listed as Cc1ccccc1Nc1nc2ccccc2c2[nH]nc(N)c12 shows activity at 1 h, 10 µM equal to 93.6

Entry COc1ccc(-c2nc3c4ccoc4c4ccccc4c3[nH]2)cc1 , activity at 1 h, 10 µM reported as 85.4

Reported activity at 1 h, 10 µM ( Nc1n[nH]c2c1c(Nc1cccc(Cl)c1)nc1ccccc12 ) = 94.1

----------
- experimental_system: beta-glucuronidase (Homo sapiens)
- Sequence (P08236 whole entry): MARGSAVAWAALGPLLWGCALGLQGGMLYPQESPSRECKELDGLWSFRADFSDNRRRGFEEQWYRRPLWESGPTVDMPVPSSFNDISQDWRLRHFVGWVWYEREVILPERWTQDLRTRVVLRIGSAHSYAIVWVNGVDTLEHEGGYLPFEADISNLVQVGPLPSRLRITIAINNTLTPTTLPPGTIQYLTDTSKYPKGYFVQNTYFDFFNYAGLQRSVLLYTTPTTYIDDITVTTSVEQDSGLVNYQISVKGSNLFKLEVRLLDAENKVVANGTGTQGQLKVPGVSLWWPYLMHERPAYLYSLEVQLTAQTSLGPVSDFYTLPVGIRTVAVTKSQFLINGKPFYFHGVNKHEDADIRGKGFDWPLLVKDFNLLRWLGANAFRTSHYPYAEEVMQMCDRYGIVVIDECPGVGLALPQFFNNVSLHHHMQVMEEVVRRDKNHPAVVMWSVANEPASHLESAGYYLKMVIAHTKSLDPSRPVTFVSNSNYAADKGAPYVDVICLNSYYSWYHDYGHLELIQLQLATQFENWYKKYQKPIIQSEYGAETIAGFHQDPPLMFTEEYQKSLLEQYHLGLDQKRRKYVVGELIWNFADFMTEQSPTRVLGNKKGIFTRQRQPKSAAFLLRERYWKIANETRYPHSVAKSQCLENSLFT
- assay_overview: Inhibition of N-terminal His-tagged human beta-glucuronidase expressed in Escherichia coli BL21 (DE3) assessed as residual activity using pNPG as substrate at 10 uM preincubated for 30 mins followed by substrate addition measured after 1 hr relative to control
- condition_summary: probe pNPG, read-out: Activity
endpoint: activity at 1 h, 10 µM (%)
Give your result in % as a bare value.

Form field activity at 1 h, 10 µM, entry Cc1cc2c(n1CCCN(C)CCCn1c(C)cc3c1C(=O)c1ccccc1C3=O)C(=O)c1ccccc1C2=O : 79.8

For reference, reported activity at 1 h, 10 µM for Cc1ccc(Nc2nc3cc(F)ccc3c3[nH]nc(N)c23)cc1 stands at 91.5

Lab note: CCOC(=O)CN1C(=O)S/C(=C/c2ccc3cc(F)ccc3n2)C1=O gave activity at 1 h, 10 µM of 87.9

Looking up Nc1n[nH]c2c1c(Nc1ccccc1Cl)nc1ccccc12 , I found its activity at 1 h, 10 µM recorded as 79.8

The recorded activity at 1 h, 10 µM for entry Nc1n[nH]c2c1c(Nc1cccc(O)c1)nc1ccccc12 equals 78.3

Reported activity at 1 h, 10 µM of Nc1n[nH]c2c1c(Nc1ccc([N+](=O)[O-])cc1)nc1ccccc12 : 90.9

Entry Cc1cccc2c1nc(Nc1ccc(Cl)cc1)c1c(N)n[nH]c12 — recorded activity at 1 h, 10 µM = 88.3

Sure, the documented activity at 1 h, 10 µM for NC(=S)N/N=C/c1ccc2cc(F)ccc2n1 is 78.5
